Molecular target: PrgB188-1233 dimer (Enterococcus faecalis (plasmid pCF10), UniProt Q04112 188-1233)
Assay: ITC
Readout Type: pKd
Please treat pKd as minus the base-10 logarithm of the molar concentration.

Query: pKd; subject: 19-bp dsDNA (dsDNA) DNA 1: GGGGGCGGGGCGGGCGGCG DNA 2: CGCCGCCCGCCCCGCCCCC 3.79
